assay: Pharmacokinetics in rats; type: in vivo; conditions: male, SD, rat, plasma, ip, i.p. (5 mg/kg)
VALUE_KIND: AUC(0-t) (ng·h/mL)
Numbers only, in ng·h/mL.

{"columns": ["MOLECULE", "AUC(0-t) [ng·h/mL]"],
 "data": [
  ["O=C(NCc1ccccc1)C(=O)[C@H](C[C@@H]1CCCNC1=O)NC(=O)[C@H](Cc1ccc(F)cc1)NC(=O)c1cc2ccccc2o1 [14a]", 4760]
]}

Now let's try a different one.
// Input: O=C(NCc1ccccc1)C(=O)[C@H](C[C@@H]1CCCNC1=O)NC(=O)[C@H](CC1CCCCC1)NC(=O)c1cc2ccccc2o1 [14b] . Output its AUC(0-t) only.
9300

* * *

assay: Pharmacokinetics in dogs; assay type: in vivo; details: male, Beagle, dog, plasma, iv, i.v. (1 mg/kg)
VALUE_KIND: AUC(0-t) (ng·h/mL)
Numbers only, in ng·h/mL.

{"columns": ["COMPOUND", "AUC(0-t) [ng·h/mL]"],
 "data": [
  ["O=C(NCc1ccccc1)C(=O)[C@H](C[C@@H]1CCCNC1=O)NC(=O)[C@H](Cc1ccc(F)cc1)NC(=O)c1cc2ccccc2o1 [14a]", 732]
]}

// Input: O=C(NCc1ccccc1)C(=O)[C@H](C[C@@H]1CCCNC1=O)NC(=O)[C@H](CC1CCCCC1)NC(=O)c1cc2ccccc2o1 [14b] . Output its AUC(0-t) only.
544

* * *

Exercise: state measured half-life for each of the compounds provided.
experiment: Pharmacokinetics in dogs; assay type: in vivo; settings: male, Beagle, dog, plasma, sc, s.c. (1 mg/kg)
Answers are plain numbers, in h.

{"columns": ["COMPOUND", "MEASUREMENT_UNITS", "half-life"],
 "data": [
  ["O=C(NCc1ccccc1)C(=O)[C@H](C[C@@H]1CCCNC1=O)NC(=O)[C@H](CC1CCCCC1)NC(=O)c1cc2ccccc2o1 [14b]", "h", 3.19]
]}

// Input: O=C(NCc1ccccc1)C(=O)[C@H](C[C@@H]1CCCNC1=O)NC(=O)[C@H](Cc1ccc(F)cc1)NC(=O)c1cc2ccccc2o1 [14a] . Output its half-life only.
3.96

* * *

test: Pharmacokinetics in mice; type: in vivo; settings: male, CD-1, mouse, plasma, ip, 14b, i.p. (20 mg/kg)
VALUE_KIND: Tmax (min)
Answers are plain numbers, in min.

// Input: O=C(NCc1ccccc1)C(=O)[C@H](C[C@@H]1CCCNC1=O)NC(=O)[C@H](CC1CCCCC1)NC(=O)c1cc2ccccc2o1 [14b] . Output its Tmax only.
10.8

* * *

test: Pharmacokinetics in mice; type: in vivo; conditions: male, ICR, mouse, plasma, ip, 14a, i.p. (5 mg/kg)
VALUE_KIND: Tmax (min)
Numbers only, in min.

// Input: O=C(NCc1ccccc1)C(=O)[C@H](C[C@@H]1CCCNC1=O)NC(=O)[C@H](Cc1ccc(F)cc1)NC(=O)c1cc2ccccc2o1 [14a] . Output its Tmax only.
15

* * *

experiment: Pharmacokinetics in rats; type: in vivo; settings: male, SD, rat, plasma, iv, i.v. (5 mg/kg)
VALUE_KIND: AUC(0-t) (ng·h/mL)
Answers are plain numbers, in ng·h/mL.

{"columns": ["COMPOUND", "QUANTITATIVE_READOUT"],
 "data": [
  ["O=C(NCc1ccccc1)C(=O)[C@H](C[C@@H]1CCCNC1=O)NC(=O)[C@H](Cc1ccc(F)cc1)NC(=O)c1cc2ccccc2o1 [14a]", 4110]
]}

Now let's try a different one.
// Input: O=C(NCc1ccccc1)C(=O)[C@H](C[C@@H]1CCCNC1=O)NC(=O)[C@H](CC1CCCCC1)NC(=O)c1cc2ccccc2o1 [14b] . Output its AUC(0-t) only.
4220
